Listed next: entries and their corresponding EC50 hC3 cleavage.
Biological target: plasma purified human complement protein C3 (human) (UniProt P01024)
Sequence (P01024 23-667, chain 1 of 2): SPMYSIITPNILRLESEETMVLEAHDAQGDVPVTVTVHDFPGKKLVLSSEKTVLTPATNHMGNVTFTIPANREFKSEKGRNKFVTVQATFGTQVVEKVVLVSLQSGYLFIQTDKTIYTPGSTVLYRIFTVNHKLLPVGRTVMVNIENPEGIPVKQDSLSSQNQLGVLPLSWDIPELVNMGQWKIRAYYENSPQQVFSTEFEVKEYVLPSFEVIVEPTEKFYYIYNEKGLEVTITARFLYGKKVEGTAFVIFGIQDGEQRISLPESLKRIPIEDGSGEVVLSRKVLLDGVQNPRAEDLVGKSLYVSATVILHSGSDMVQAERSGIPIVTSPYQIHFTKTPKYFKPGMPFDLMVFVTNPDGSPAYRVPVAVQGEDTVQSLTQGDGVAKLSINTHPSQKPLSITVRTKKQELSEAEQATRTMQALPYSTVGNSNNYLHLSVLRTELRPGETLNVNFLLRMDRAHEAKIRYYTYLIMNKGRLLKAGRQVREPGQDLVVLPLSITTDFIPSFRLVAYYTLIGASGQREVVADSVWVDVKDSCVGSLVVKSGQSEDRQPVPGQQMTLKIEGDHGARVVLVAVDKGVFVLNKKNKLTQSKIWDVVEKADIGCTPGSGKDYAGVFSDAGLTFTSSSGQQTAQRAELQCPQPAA
Sequence (P01024 672-1663, chain 2 of 2): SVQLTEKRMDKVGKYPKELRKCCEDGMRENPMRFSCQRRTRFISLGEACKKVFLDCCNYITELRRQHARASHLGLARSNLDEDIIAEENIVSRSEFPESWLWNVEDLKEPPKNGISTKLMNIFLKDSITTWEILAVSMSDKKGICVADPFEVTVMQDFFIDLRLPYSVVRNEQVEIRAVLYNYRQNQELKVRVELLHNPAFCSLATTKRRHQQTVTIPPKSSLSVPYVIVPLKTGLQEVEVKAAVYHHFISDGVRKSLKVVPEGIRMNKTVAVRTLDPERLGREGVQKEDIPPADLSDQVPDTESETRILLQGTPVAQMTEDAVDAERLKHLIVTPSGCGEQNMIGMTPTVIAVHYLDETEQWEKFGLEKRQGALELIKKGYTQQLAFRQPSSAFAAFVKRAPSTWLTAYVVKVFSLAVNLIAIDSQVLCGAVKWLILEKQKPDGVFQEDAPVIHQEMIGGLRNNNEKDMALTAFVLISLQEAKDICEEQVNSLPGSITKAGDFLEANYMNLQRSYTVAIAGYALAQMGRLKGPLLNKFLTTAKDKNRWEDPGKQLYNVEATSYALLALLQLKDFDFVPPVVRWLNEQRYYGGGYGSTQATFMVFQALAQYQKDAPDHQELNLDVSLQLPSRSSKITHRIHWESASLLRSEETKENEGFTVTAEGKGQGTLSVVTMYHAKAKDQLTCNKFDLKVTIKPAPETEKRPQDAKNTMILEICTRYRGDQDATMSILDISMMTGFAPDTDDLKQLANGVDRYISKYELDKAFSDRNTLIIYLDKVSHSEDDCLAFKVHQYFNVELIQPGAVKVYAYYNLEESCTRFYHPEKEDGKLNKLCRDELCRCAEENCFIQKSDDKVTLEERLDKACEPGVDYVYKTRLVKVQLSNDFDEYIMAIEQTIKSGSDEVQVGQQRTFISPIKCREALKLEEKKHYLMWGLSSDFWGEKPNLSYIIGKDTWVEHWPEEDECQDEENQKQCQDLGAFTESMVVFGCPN
Experiment: cell-based or functional assay
Unit nM implied. Number only.

Param item = MTSP-1 protease domain I41D/F97T/F99L/C122S/G151N/Q175S/Q192T/D217A (enzyme) VVGGTDADEGEWPWQVSLHALGQGHDCGASLISPNWLVSAAHCYIDDRGFRYSDPTQWTAFLGLHDQSQRSAPGVQERRLKRIISHPFFNDTTLDYDIALLELEKPAEYSSMVRPISLPDASHVFPAGKAIWVTGWGHTQYGGTNALILQKGEIRVINQTTCENLLPQSITPRMMCVGFLSGGVDSCTGDSGGPLSSVEADGRIFQAGVVSWGAGCAQRNKPGVYTRLPLFRDWIKENTGV ; retrieve measured EC50 hC3 cleavage.
70.9

Param item = MTSP-1 protease domain I41D/F99L/C122S/G151N/Q192T (enzyme) VVGGTDADEGEWPWQVSLHALGQGHDCGASLISPNWLVSAAHCYIDDRGFRYSDPTQWTAFLGLHDQSQRSAPGVQERRLKRIISHPFFNDFTLDYDIALLELEKPAEYSSMVRPISLPDASHVFPAGKAIWVTGWGHTQYGGTNALILQKGEIRVINQTTCENLLPQQITPRMMCVGFLSGGVDSCTGDSGGPLSSVEADGRIFQAGVVSWGDGCAQRNKPGVYTRLPLFRDWIKENTGV ; retrieve measured EC50 hC3 cleavage.
47

Param item = MTSP-1 protease domain I41S/Y60gW/ins97aN/F99L/C122S/Q175R/Q192T (enzyme) VVGGTDADEGEWPWQVSLHALGQGHSCGASLISPNWLVSAAHCYIDDRGFRWSDPTQWTAFLGLHDQSQRSAPGVQERRLKRIISHPFFNDFNTLDYDIALLELEKPAEYSSMVRPISLPDASHVFPAGKAIWVTGWGHTQYGGTGALILQKGEIRVINQTTCENLLPQRITPRMMCVGFLSGGVDSCTGDSGGPLSSVEADGRIFQAGVVSWGDGCAQRNKPGVYTRLPLFRDWIKENTGV ; retrieve measured EC50 hC3 cleavage.
12
